meta.source: ChEMBL document CHEMBL1268822

Test system: Leishmania donovani
TEST PROTOCOL: Antileishmanial activity against Leishmania donovani amastigotes infected in mouse J774A1 cells assessed as inhibition of parasite growth after 72 hrs by luciferase reporter gene assay
Assay type: functional, organism-based
CONDITION SUMMARY: J774.A1, 72 h
The entries below come with measured IC50 values attached.
Reply with just the number (in µM).

See these solved cases before continuing.
COC(=O)[C@H]1Cc2c([nH]c3ccccc23)[C@H](c2ccc(C(C)C)cc2)N1C(=O)C(=O)c1c[nH]c2ccc(Br)cc12 | 4.44
COC(=O)[C@@H]1Cc2c([nH]c3ccccc23)[C@@H](c2ccc(C)cc2)N1C(=O)C(=O)c1c[nH]c2ccc(Br)cc12 | 4.79
CCc1ccc([C@H]2c3[nH]c4ccccc4c3C[C@H](C(=O)OC)N2C(=O)C(=O)c2c[nH]c3ccc(Br)cc23)cc1 | 5.86
CCc1ccc([C@H]2c3[nH]c4ccccc4c3C[C@H](C(=O)OC)N2C(=O)C(=O)c2c[nH]c3ccccc23)cc1 | 8.04
CCc1ccc([C@@H]2c3[nH]c4ccccc4c3C[C@H](C(=O)OC)N2C(=O)C(=O)c2c[nH]c3ccccc23)cc1 | 5.17

Write down the reported IC50 of COC(=O)[C@H]1Cc2c([nH]c3ccccc23)[C@@H](c2ccc(C(C)C)cc2)N1C(=O)C(=O)c1c[nH]c2ccc(Br)cc12 , test system: Leishmania donovani.
3.91

Would you mind doing CCc1ccc([C@@H]2c3[nH]c4ccccc4c3C[C@H](C(=O)OC)N2C(=O)C(=O)c2c[nH]c3ccc(Br)cc23)cc1 as well?
5.36

###

The entries below come with measured pIC50 values attached.
System: Leishmania donovani
TEST PROTOCOL: Antileishmanial activity against Leishmania donovani amastigotes infected in mouse J774A1 cells assessed as inhibition of parasite growth after 72 hrs by luciferase reporter gene assay
Type: functional, organism-based
CONDITION SUMMARY: J774.A1, 72 h
# reply with the number alone; pIC50 is -log10 of concentration in mol/L

COC(=O)[C@@H]1Cc2c([nH]c3ccccc23)[C@@H](c2ccc(Cl)cc2)N1C(=O)C(=O)c1c[nH]c2ccc(Br)cc12 | 5.40
COC(=O)[C@@H]1Cc2c([nH]c3ccccc23)[C@H](c2ccc(C)cc2)N1C(=O)C(=O)c1c[nH]c2ccccc12 | 5.13
COC(=O)[C@H]1Cc2c([nH]c3ccccc23)[C@H](c2ccc(C(C)C)cc2)N1C(=O)C(=O)c1c[nH]c2ccccc12 | 5.22
COC(=O)[C@@H]1Cc2c([nH]c3ccccc23)[C@@H](c2ccc(Cl)cc2)N1C(=O)C(=O)c1c[nH]c2ccccc12 | 5.36
COC(=O)[C@@H]1Cc2c([nH]c3ccccc23)[C@@H](c2ccc(C)cc2)N1C(=O)C(=O)c1c[nH]c2ccccc12 | 5.17

Now examine the next entry.
Using the record for COC(=O)[C@@H]1Cc2c([nH]c3ccccc23)[C@H](c2ccc(C)cc2)N1C(=O)C(=O)c1c[nH]c2ccc(Br)cc12 , report its pIC50.
5.29

###

TEST PROTOCOL: Toxicity in mouse J774A1 cells
Assay type: cell-based, J774.A1
The entries below come with measured log10 CC50 values attached.
Hey, these are logged values: log10 of CC50, µM being the unit before logging.

See these solved cases before continuing.
COC(=O)[C@H]1Cc2c([nH]c3ccccc23)[C@H](c2ccc(C(C)C)cc2)N1C(=O)C(=O)c1c[nH]c2ccccc12 | 1.18
CCc1ccc([C@H]2c3[nH]c4ccccc4c3C[C@H](C(=O)OC)N2C(=O)C(=O)c2c[nH]c3ccccc23)cc1 | 1.49
COC(=O)[C@@H]1Cc2c([nH]c3ccccc23)[C@@H](c2ccc(C)cc2)N1C(=O)C(=O)c1c[nH]c2ccccc12 | 1.54
COC(=O)[C@@H]1Cc2c([nH]c3ccccc23)[C@H](c2ccc(C)cc2)N1C(=O)C(=O)c1c[nH]c2ccc(Br)cc12 | 1.00
COC(=O)[C@@H]1Cc2c([nH]c3ccccc23)[C@@H](c2ccccc2Br)N1C(=O)C(=O)c1c[nH]c2ccccc12 | 1.48

Now examine the next entry.
Using the record for COC(=O)[C@@H]1Cc2c([nH]c3ccccc23)[C@@H](c2ccc(C)cc2)N1C(=O)C(=O)c1c[nH]c2ccc(Br)cc12 , report its log10 CC50.
0.95
